biological target: CCR5 (UniProt P51681); experiment: cell-based or functional assay
Observable: CCR5 signalling (%) (% of Emax of PSC-RANTES)

>  <Binder>
RANTES derivative: signature sequence SEQ ID NO: 59 fused to positions 10-68 of native RANTES (SEQ ID NO: 1) (ligand) QGPPGQWYQSCCFAYIARPLPRAHIKEYFYTSGKCSNPAVVFVTRKNRQVCANPEKKWVREYINSLEMS

>  <Assay value>
6

$$$$
>  <Binder>
RANTES derivative: signature sequence SEQ ID NO: 58 fused to positions 10-68 of native RANTES (SEQ ID NO: 1) (ligand) QGPPLMTLQVCCFAYIARPLPRAHIKEYFYTSGKCSNPAVVFVTRKNRQVCANPEKKWVREYINSLEMS

>  <Assay value>
0.7

$$$$
>  <Binder>
RANTES derivative: signature sequence SEQ ID NO: 66 fused to positions 10-68 of native RANTES (SEQ ID NO: 1) (ligand) QGPPLMSVQSCCFAYIARPLPRAHIKEYFYTSGKCSNPAVVFVTRKNRQVCANPEKKWVREYINSLEMS

>  <Assay value>
33.4

$$$$
>  <Binder>
RANTES derivative: signature sequence SEQ ID NO: 60 fused to positions 10-68 of native RANTES (SEQ ID NO: 1) (ligand) QGPPLQWMQACCFAYIARPLPRAHIKEYFYTSGKCSNPAVVFVTRKNRQVCANPEKKWVREYINSLEMS

>  <Assay value>
11.8

$$$$
>  <Binder>
RANTES derivative: signature sequence SEQ ID NO: 33 fused to positions 10-68 of native RANTES (SEQ ID NO: 1) (ligand) QGPPMMAGLSCCFAYIARPLPRAHIKEYFYTSGKCSNPAVVFVTRKNRQVCANPEKKWVREYINSLEMS

>  <Assay value>
0.2

$$$$
>  <Binder>
RANTES derivative: signature sequence SEQ ID NO: 45 fused to positions 10-68 of native RANTES (SEQ ID NO: 1) (ligand) QGPPLMSLTVCCFAYIARPLPRAHIKEYFYTSGKCSNPAVVFVTRKNRQVCANPEKKWVREYINSLEMS

>  <Assay value>
77.4

$$$$
>  <Binder>
RANTES derivative: signature sequence SEQ ID NO: 18 fused to positions 10-68 of native RANTES (SEQ ID NO: 1) (ligand) QGPPGSYDYSCCFAYIARPLPRAHIKEYFYTSGKCSNPAVVFVTRKNRQVCANPEKKWVREYINSLEMS

>  <Assay value>
90.1

$$$$
>  <Binder>
RANTES derivative: signature sequence SEQ ID NO: 16 fused to positions 10-68 of native RANTES (SEQ ID NO: 1) (ligand) QGPPGDTVLWCCFAYIARPLPRAHIKEYFYTSGKCSNPAVVFVTRKNRQVCANPEKKWVREYINSLEMS

>  <Assay value>
96.3

$$$$
>  <Binder>
RANTES derivative: signature sequence SEQ ID NO: 10 fused to positions 10-68 of native RANTES (SEQ ID NO: 1) (ligand) QGPPLMWLQSCCFAYIARPLPRAHIKEYFYTSGKCSNPAVVFVTRKNRQVCANPEKKWVREYINSLEMS

>  <Assay value>
2.3

$$$$
>  <Binder>
RANTES derivative: signature sequence SEQ ID NO: 12 fused to positions 10-68 of native RANTES (SEQ ID NO: 1) (ligand) QGPPLMWLGGCCFAYIARPLPRAHIKEYFYTSGKCSNPAVVFVTRKNRQVCANPEKKWVREYINSLEMS

>  <Assay value>
4.1

$$$$
